// values below are reported viability, T/C
# System: 292921-168-R-J2-PDC KRAS tumor spheroid viability
# testSummary: Anticancer human tumor 292921-168-R-J2-PDC patient-derived pancreatic carcinoma cell line growth inhibition [KRAS2]
# setupConditions: second compound 0.1 µM; first compound 0.316 µM; stronger effect = lower value; spheroids with HUVEC and MSC
quantity: viability, T/C

1) COC(=O)c1ccc2c(C(=Nc3ccc(N(C)C(=O)CN4CCN(C)CC4)cc3)c3ccccc3)c(O)[nH]c2c1 + C=CC(=O)N1CCN(c2nc(OCC3CCCN3C)nc3c2CCN(c2cccc4cccc(C)c24)C3)CC1CC#N | 15.5%
2) CC1COCCN1c1cc(-c2ccnn2C)c2ccnc(-c3ccn[nH]3)c2n1 (stereo not given) + COc1cc2nc(C)nc(NC(C)c3cc(N)cc(C(F)(F)F)c3)c2cc1OC1CCOC1 | 10.6%
3) O=C(c1cc(Cc2n[nH]c(=O)c3ccccc23)ccc1F)N1CCN(C(=O)C2CC2)CC1 + COc1cc2nc(C)nc(NC(C)c3cc(N)cc(C(F)(F)F)c3)c2cc1OC1CCOC1 | 108%
4) COC(=O)c1ccc2c(C(=Nc3ccc(N(C)C(=O)CN4CCN(C)CC4)cc3)c3ccccc3)c(O)[nH]c2c1 + CC1OCC2(CCN(c3cnc(Sc4ccnc(N)c4Cl)c(N)n3)CC2)C1N | 48.3%
5) CC(C)NCC(C(=O)N1CCN(c2ncnc3c2C(C)CC3O)CC1)c1ccc(Cl)cc1 (stereo not given) + C=CC(=O)N1CCN(c2nc(OCC3CCCN3C)nc3c2CCN(c2cccc4cccc(C)c24)C3)CC1CC#N | 85.3%

----------
// values below are reported viability, T/C
# Tested on: 292921-168-R-J2-PDC KRAS tumor spheroid viability
# testSummary: Anticancer human tumor 292921-168-R-J2-PDC cell line growth inhibition [KRAS2];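 further: drug exposure lasted seven days after spheroids formed for three days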;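 on viability, T/C: percent of DMSO vehicle control viability which is 100%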
# setupConditions: second compound 0.316 µM; first compound 0.1 µM; stronger effect = lower value; spheroids with HUVEC and MSC
quantity: viability, T/C (%)

1) CC1OCC2(CCN(c3cnc(Sc4ccnc(N)c4Cl)c(N)n3)CC2)C1N (stereo not given) + C=CC(=O)N1CCN(c2nc(=O)n(-c3c(C)ccnc3C(C)C)c3nc(-c4c(O)cccc4F)c(F)cc23)C(C)C1 | 82.5
2) CC1COCCN1c1cc(-c2ccnn2C)c2ccnc(-c3ccn[nH]3)c2n1 (stereo not given) + CNCc1ccccc1-c1csc(C(C)Nc2nc(C)nc3cc(OC)c(OC)cc23)c1 | 12.7
3) CC1(C)CCC(CN2CCN(c3ccc(C(=O)NS(=O)(=O)c4ccc(NCC5CCOCC5)c([N+](=O)[O-])c4)c(Oc4cnc5[nH]ccc5c4)c3)CC2)=C(c2ccc(Cl)cc2)C1 + CNCc1ccccc1-c1csc(C(C)Nc2nc(C)nc3cc(OC)c(OC)cc23)c1 | 86.9
4) CC(=O)OC12COC1CC(O)C1(C)C(=O)C(O)C3=C(C)C(OC(=O)C(O)C(NC(=O)OC(C)(C)C)c4ccccc4)CC(O)(C(OC(=O)c4ccccc4)C21)C3(C)C (stereo not given) + COc1cc2nc(C)nc(NC(C)c3cc(N)cc(C(F)(F)F)c3)c2cc1OC1CCOC1 | 10.9
5) O=C(c1cc(Cc2n[nH]c(=O)c3ccccc23)ccc1F)N1CCN(C(=O)C2CC2)CC1 + CNCc1ccccc1-c1csc(C(C)Nc2nc(C)nc3cc(OC)c(OC)cc23)c1 | 79

----------
// values below are reported pIC50
# Test system: 292921-168-R-J2-PDC KRAS tumor spheroid viability
# testSummary: Anticancer human tumor 292921-168-R-J2-PDC cell line growth inhibition [KRAS2];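 further: drug exposure lasted seven days after spheroids formed for three days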
# setupConditions: curve of first compound; second compound 3.16 µM; spheroids with HUVEC and MSC
pIC50: −log10 of the molar value.
quantity: pIC50

1. COC(=O)c1ccc2c(C(=Nc3ccc(N(C)C(=O)CN4CCN(C)CC4)cc3)c3ccccc3)c(O)[nH]c2c1 + COc1cc2nc(C)nc(NC(C)c3cc(N)cc(C(F)(F)F)c3)c2cc1OC1CCOC1 | 6.66
2. COc1cc2nccc(Oc3ccc(NC(=O)C4(C(=O)Nc5ccc(F)cc5)CC4)cc3)c2cc1OC + COc1cc2nc(C)nc(NC(C)c3cc(N)cc(C(F)(F)F)c3)c2cc1OC1CCOC1 | 6.00
3. CC(=O)Nc1cccc(-n2c(=O)n(C3CC3)c(=O)c3c(Nc4ccc(I)cc4F)n(C)c(=O)c(C)c32)c1 + C=CC(=O)N1CCN(c2nc(=O)n(-c3c(C)ccnc3C(C)C)c3nc(-c4c(O)cccc4F)c(F)cc23)C(C)C1 | 9.63

----------
# Tested on: 292921-168-R-J2-PDC KRAS tumor spheroid viability
# testSummary: Anticancer human tumor 292921-168-R-J2-PDC cell line growth inhibition [KRAS2];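 further: drug exposure lasted seven days after spheroids formed for three days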;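 on viability, T/C: percent of DMSO vehicle control viability which is 100%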
# setupConditions: second compound 10 µM; first compound 0.316 µM; stronger effect = lower value; spheroids with HUVEC and MSC
Decide using viability, T/C alone. Strictly below 20%: Fulfilled. Equal to or above 20%: Not fulfilled.

1. Cn1nccc1Nc1nccc(-c2cc3c(s2)C(C)(C)N(CCN2CCOCC2)C3=O)n1 + CC1OCC2(CCN(c3cnc(Sc4ccnc(N)c4Cl)c(N)n3)CC2)C1N | Fulfilled
2. CC1OCC2(CCN(c3cnc(Sc4ccnc(N)c4Cl)c(N)n3)CC2)C1N (centres undefined) + COc1cc2nc(C)nc(NC(C)c3cc(N)cc(C(F)(F)F)c3)c2cc1OC1CCOC1 | Fulfilled
3. CC(C)NCC(C(=O)N1CCN(c2ncnc3c2C(C)CC3O)CC1)c1ccc(Cl)cc1 (centres undefined) + CC1OCC2(CCN(c3cnc(Sc4ccnc(N)c4Cl)c(N)n3)CC2)C1N | Not fulfilled
4. CC1COCCN1c1cc(-c2ccnn2C)c2ccnc(-c3ccn[nH]3)c2n1 (centres undefined) + CNCc1ccccc1-c1csc(C(C)Nc2nc(C)nc3cc(OC)c(OC)cc23)c1 | Fulfilled
5. O=C(c1cc(Cc2n[nH]c(=O)c3ccccc23)ccc1F)N1CCN(C(=O)C2CC2)CC1 + COc1cc2nc(C)nc(NC(C)c3cc(N)cc(C(F)(F)F)c3)c2cc1OC1CCOC1 | Not fulfilled
6. CC1(C)CCC(CN2CCN(c3ccc(C(=O)NS(=O)(=O)c4ccc(NCC5CCOCC5)c([N+](=O)[O-])c4)c(Oc4cnc5[nH]ccc5c4)c3)CC2)=C(c2ccc(Cl)cc2)C1 + C=CC(=O)N1CCN(c2nc(=O)n(-c3c(C)ccnc3C(C)C)c3nc(-c4c(O)cccc4F)c(F)cc23)C(C)C1 | Not fulfilled
7. COC(=O)c1ccc2c(C(=Nc3ccc(N(C)C(=O)CN4CCN(C)CC4)cc3)c3ccccc3)c(O)[nH]c2c1 + CC1OCC2(CCN(c3cnc(Sc4ccnc(N)c4Cl)c(N)n3)CC2)C1N | Not fulfilled
8. COc1cc(Nc2ncc3c(n2)-c2ccc(Cl)cc2C(c2c(F)cccc2OC)=NC3)ccc1C(=O)O + CC1OCC2(CCN(c3cnc(Sc4ccnc(N)c4Cl)c(N)n3)CC2)C1N | Fulfilled
9. CC(=O)OC12COC1CC(O)C1(C)C(=O)C(O)C3=C(C)C(OC(=O)C(O)C(NC(=O)OC(C)(C)C)c4ccccc4)CC(O)(C(OC(=O)c4ccccc4)C21)C3(C)C (centres undefined) + CC1OCC2(CCN(c3cnc(Sc4ccnc(N)c4Cl)c(N)n3)CC2)C1N | Fulfilled

----------
# Test system: 292921-168-R-J2-PDC KRAS tumor spheroid viability
# testSummary: Anticancer human tumor 292921-168-R-J2-PDC cell line growth inhibition [KRAS2];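 further: drug exposure lasted seven days after spheroids formed for three days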;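 on viability, T/C: percent of DMSO vehicle control viability which is 100%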
# setupConditions: second compound 10 µM; first compound 0.1 µM; stronger effect = lower value; spheroids with HUVEC and MSC
quantity: viability, T/C

1) CC1COCCN1c1cc(-c2ccnn2C)c2ccnc(-c3ccn[nH]3)c2n1 (stereo not drawn) + C=CC(=O)N1CCN(c2nc(=O)n(-c3c(C)ccnc3C(C)C)c3nc(-c4c(O)cccc4F)c(F)cc23)C(C)C1 | 14.7%
2) CC(C)n1nc(-c2ccc3oc(N)nc3c2)c2c(N)ncnc21 + COc1cc2nc(C)nc(NC(C)c3cc(N)cc(C(F)(F)F)c3)c2cc1OC1CCOC1 | 15.5%
3) COc1cc(Nc2ncc3c(n2)-c2ccc(Cl)cc2C(c2c(F)cccc2OC)=NC3)ccc1C(=O)O + CC1OCC2(CCN(c3cnc(Sc4ccnc(N)c4Cl)c(N)n3)CC2)C1N | 16.7%

----------
// values below are reported viability, T/C
# System: 292921-168-R-J2-PDC KRAS tumor spheroid viability
# testSummary: Anticancer human tumor 292921-168-R-J2-PDC cell line growth inhibition [KRAS2];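 further: drug exposure lasted seven days after spheroids formed for three days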;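 on viability, T/C: percent of DMSO vehicle control viability which is 100%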
# setupConditions: second compound 0.316 µM; first compound 0.1 µM; stronger effect = lower value; spheroids with HUVEC and MSC
# Description: Multicellular complex tumor spheroid response to RAS pathway inhibitors in combination with a targeted agents in patient-derived cell lines with oncogenic KRAS variants from multiple cancer types A high-throughput screen of multi-cell type tumor spheroids was designed to identify active combinations of targeted small molecules and KRAS pathway inhibitors. […] Compounds. […] If the clinical Cmax for an agent had not been determined, the highest concentration tested was 10 microM. […]
quantity: viability, T/C (%)

1. CC(C)NCC(C(=O)N1CCN(c2ncnc3c2C(C)CC3O)CC1)c1ccc(Cl)cc1 (stereo unspecified) + CNCc1ccccc1-c1csc(C(C)Nc2nc(C)nc3cc(OC)c(OC)cc23)c1 | 70.6
2. Cn1nccc1Nc1nccc(-c2cc3c(s2)C(C)(C)N(CCN2CCOCC2)C3=O)n1 + CNCc1ccccc1-c1csc(C(C)Nc2nc(C)nc3cc(OC)c(OC)cc23)c1 | 39.7
3. Cn1ncnc1[C@H]1c2n[nH]c(=O)c3cc(F)cc(c23)N[C@@H]1c1ccc(F)cc1 + COc1cc2nc(C)nc(NC(C)c3cc(N)cc(C(F)(F)F)c3)c2cc1OC1CCOC1 | 64.3
4. CC1(C)CCC(CN2CCN(c3ccc(C(=O)NS(=O)(=O)c4ccc(NCC5CCOCC5)c([N+](=O)[O-])c4)c(Oc4cnc5[nH]ccc5c4)c3)CC2)=C(c2ccc(Cl)cc2)C1 + CC1OCC2(CCN(c3cnc(Sc4ccnc(N)c4Cl)c(N)n3)CC2)C1N | 65.9
5. CC1(C)CCC(CN2CCN(c3ccc(C(=O)NS(=O)(=O)c4ccc(NCC5CCOCC5)c([N+](=O)[O-])c4)c(Oc4cnc5[nH]ccc5c4)c3)CC2)=C(c2ccc(Cl)cc2)C1 + COc1cc2nc(C)nc(NC(C)c3cc(N)cc(C(F)(F)F)c3)c2cc1OC1CCOC1 | 81
6. COC(=O)c1ccc2c(C(=Nc3ccc(N(C)C(=O)CN4CCN(C)CC4)cc3)c3ccccc3)c(O)[nH]c2c1 + CC1OCC2(CCN(c3cnc(Sc4ccnc(N)c4Cl)c(N)n3)CC2)C1N | 63.1
7. Cn1ncnc1[C@H]1c2n[nH]c(=O)c3cc(F)cc(c23)N[C@@H]1c1ccc(F)cc1 + CNCc1ccccc1-c1csc(C(C)Nc2nc(C)nc3cc(OC)c(OC)cc23)c1 | 56.9
8. CC1OCC2(CCN(c3cnc(Sc4ccnc(N)c4Cl)c(N)n3)CC2)C1N (stereo unspecified) + CNCc1ccccc1-c1csc(C(C)Nc2nc(C)nc3cc(OC)c(OC)cc23)c1 | 56.2
9. CC(C)n1nc(-c2ccc3oc(N)nc3c2)c2c(N)ncnc21 + C=CC(=O)N1CCN(c2nc(=O)n(-c3c(C)ccnc3C(C)C)c3nc(-c4c(O)cccc4F)c(F)cc23)C(C)C1 | 29.7
10. CC(C)NCC(C(=O)N1CCN(c2ncnc3c2C(C)CC3O)CC1)c1ccc(Cl)cc1 (stereo unspecified) + CC1OCC2(CCN(c3cnc(Sc4ccnc(N)c4Cl)c(N)n3)CC2)C1N | 57
11. CC(=O)OC12COC1CC(O)C1(C)C(=O)C(O)C3=C(C)C(OC(=O)C(O)C(NC(=O)OC(C)(C)C)c4ccccc4)CC(O)(C(OC(=O)c4ccccc4)C21)C3(C)C (stereo unspecified) + CNCc1ccccc1-c1csc(C(C)Nc2nc(C)nc3cc(OC)c(OC)cc23)c1 | 13
